test system: BDF1 mice, P388 leukemia ip, median survival T/C; test: NCI In Vivo Anticancer Drug Screen. Data for tumor model P388 Leukemia (intraperitoneal) in B6D2F1 (BDF1) mice; conditions: endpoint: median survival time; dose: 200.0 mg/kg/injection; schedule: Q01DX001 (ip); vehicle: saline; higher = longer survival
Toxic doses and inconclusive results are not listed.
Outcome measure: T/C

• Nc1ccn(C2OC(CO)C(O)C2O)c(=O)n1 (stereo unspecified) = 100 % of control
• C/C=C/C(=O)OCC1CC[N+](C)([O-])C1 (stereo unspecified) = 91 % of control
• COc1cc2c(c3oc(=O)ccc13)C(=O)CC(C)(C)O2 = 104 % of control
• CNC(=S)NN = 100 % of control
• O=C(/C=C\c1ccc(O)c(O)c1)OC1C(O)CC(OC(=O)/C=C/c2ccc(O)c(O)c2)(C(=O)O)CC1O (stereo unspecified) = 95 % of control
• CC(=NCc1ccccc1)C(C)(O)c1ccccc1 (stereo unspecified) = 100 % of control

###

As shown below, each of these compounds has a reported T/C value.
test system: BDF1 mice, P388 leukemia ip, median survival T/C; experiment: NCI In Vivo Anticancer Drug Screen. Data for tumor model P388 Leukemia (intraperitoneal) in B6D2F1 (BDF1) mice; conditions: endpoint: median survival time; dose: 75.0 mg/kg/injection; schedule: Q04DX003 (ip); vehicle: saline; higher = longer survival
Inconclusive results and toxic doses are left out.
Outcome measure: T/C

- CCCN(CCC)CCCCO: 104 % of control
- COc1ccc(C(SCC(N)C(=O)O)(c2ccccc2)c2ccc(OC)cc2)cc1 (centres undefined): 231 % of control
- Nc1ccc2nc3ccc(N)cc3[n+](-c3ccccc3)c2c1: 165 % of control
- N/C(=N\Cl)C(Cl)(Cl)Cl: 118 % of control

###

As shown below, each of these molecules has a reported T/C value.
tested on: BDF1 mice, P388 leukemia ip, median survival T/C; assay: NCI In Vivo Anticancer Drug Screen. Data for tumor model P388 Leukemia (intraperitoneal) in B6D2F1 (BDF1) mice; conditions: endpoint: median survival time; dose: 6.25 mg/kg/injection; schedule: Q04DX003 (ip); vehicle: saline; higher = longer survival
Toxic doses and inconclusive results are not listed.
Outcome measure: T/C

* COCn1cnc2c(F)ncnc21 | 95 % of control
* NC(=O)c1cn(C2OC(CO)C(O)C2O)c2ncn3ccnc3c12 (centres undefined) | 118 % of control
* CC1(C)O[Se](=O)OC1(C)C | 100 % of control
* CC1(Cl)C(=O)NC(=O)C1Cl (centres undefined) | 95 % of control

###

test system: BDF1 mice, P388 leukemia ip, median survival T/C; assay: NCI In Vivo Anticancer Drug Screen. Data for tumor model P388 Leukemia (intraperitoneal) in B6D2F1 (BDF1) mice; settings: endpoint: median survival time; dose: 100.0 mg/kg/injection; schedule: Q01DX009 (ip); vehicle: saline with Tween-80
Toxic doses and inconclusive results are not listed. How the source made its calls: active means survival T/C of 150% or more; inactive means T/C below 125% in these data.
Outcomes: Yes = active, No = inactive

* CCC(c1ccc(O)cc1)C(CC)c1ccc(OC)cc1 (stereo not drawn) | No
* COc1cccc(CCNC(=O)CC#N)c1OC | No
* CCN(CC)c1c(-c2ccccc2)nnc2c3ccccc3nn12 | No
* O=C(CNC(=O)Nc1n[nH]c(=S)s1)NNC(=S)Nc1ccccc1 | No
* CC1(C)N=C(N)N=C(N)N1c1cccc(CC(=O)Nc2ccc(S(=O)(=O)F)cc2)c1 | Yes
* CC(C)c1nsc2c1C(=O)NC(C(C)(C)C)N2 (stereo not drawn) | No
* CCCCCCC(=O)CC(SCC)c1ccccc1Cl (stereo not drawn) | No
* CSc1ncnc2c1ncn2CCCl | No
* CCCCCCCCCCCCCCSC1CC(=O)OC1=O (stereo not drawn) | No
* O=C(Nc1ccc(F)cc1)C12CC3CC(CC(C3)C1)C2 | No
* O=[N+]([O-])c1cccc(O)c1 | No
* COc1cc(C(C)O)cc(OC)c1OC (stereo not drawn) | No
* COC(=O)CC(CC(=O)c1ccccc1)c1ccccc1 (stereo not drawn) | No

###

test system: BDF1 mice, P388 leukemia ip, median survival T/C; assay: NCI In Vivo Anticancer Drug Screen. Data for tumor model P388 Leukemia (intraperitoneal) in B6D2F1 (BDF1) mice; conditions: endpoint: median survival time; dose: 200.0 mg/kg/injection; schedule: Q04DX003 (ip); vehicle: other; higher = longer survival
Toxic doses and inconclusive results are not listed.
As shown below, each of these molecules has a reported T/C value.
Outcome measure: T/C

- O=c1cc(-c2ccccc2)ss1: 100 % of control
- O=C(N/N=C/c1cccc(Cl)c1)c1ccccc1: 95 % of control
- Cc1ccc(NC(=O)OCCSCCOC(=O)Nc2ccc(C)cc2)cc1: 90 % of control
- OCCNc1ccc(I)cc1: 122 % of control

###

tested on: BDF1 mice, P388 leukemia ip, median survival T/C; test: NCI In Vivo Anticancer Drug Screen. Data for tumor model P388 Leukemia (intraperitoneal) in B6D2F1 (BDF1) mice; settings: endpoint: median survival time; dose: 200.0 mg/kg/injection; schedule: Q04DX003 (ip); vehicle: Klucel (hydroxypropylcellulose) (HPC)
Inconclusive results and toxic doses are left out. Rule for the calls: active = survival T/C of 150% or more; inactive = T/C below 125% in these data.
Outcomes: active, inactive

• c1ccc(CC2(Cc3ccccc3)SCCS2)cc1 = inactive
• CSc1ccccc1C(=O)NNS(=O)(=O)c1ccc(C)cc1 = inactive
• CC1(C)SC(C)(C)N(C=O)C1C(=O)O (stereo not given) = inactive
• CC1(C)COC(C)(C)C(=O)O1 = inactive
• O=C1CC(c2ccc(O)cc2)CC(=O)C1C(C1CC=CCC1)N(CCCl)CCCl (stereo not given) = inactive
• COc1cc(C)c(Cl)c(C)c1C(C)=O = inactive
• CC(=O)OC1CCC2(C)C(=CCC3C2CCC2(C)C(OC(=O)c4ccccc4)CCC32)C1 (stereo not given) = inactive
• CCC(=O)O[C@H]1CC[C@H]2[C@@H]3CC[C@H]4CC(=O)[C@H](C)C[C@]4(C)[C@H]3CC[C@]12C = inactive
• NC(=O)C1(C(N)=O)CCC1 = inactive
• CC(C(=O)O)N1C(=O)c2ccccc2C1=O (stereo not given) = inactive
• O=C1c2ccccc2-c2cc(-c3ccccc3)cc(-c3ccccc3)c21 = inactive
• CN(/N=C/C(O)C(O)C(O)CO)c1ccccc1 (stereo not given) = inactive
• NN(c1ccccc1)c1ccc2ccccc2c1 = inactive
• O=C(c1ccccc1)c1cccc(Cl)c1 = inactive
• C=CCNC(=S)Nc1cc(Cl)ccc1OC = inactive
• CCCCCCCCCCCCCCCCCCOc1ccccn1 = inactive
• CN(C)c1ccc(Cc2ccc(N(C)C)cc2[N+](=O)[O-])cc1 = inactive
• CC(=O)c1ccccc1Br = inactive
• O=[N+]([O-])c1ccc(C(Br)C(Br)c2ccccc2Br)cc1 (stereo not given) = inactive
• CN(C)C(=O)C(=O)C1C=Cc2ccccc21 (stereo not given) = inactive
• Nc1ccccc1/C=C(\C(=O)O)c1cccc(Cl)c1 = inactive
• O=[N+]([O-])c1ccccc1S(=O)(=O)Oc1ccccc1 = inactive
• C=CC(C)(O)CCC1C(=C)CCC2C(C)(C)CCCC12C (stereo not given) = inactive
• CCOC1C=CC(OC(C)=O)C(COC(C)=O)O1 (stereo not given) = inactive
• COC1C(O)C(C)OC(OC2C(Oc3cccc4c(O)c5c(=O)oc6ccc(C)c7c(=O)oc(c34)c5c67)OC(C)C(O)C2O)C1O (stereo not given) = active

###

test system: BDF1 mice, P388 leukemia ip, median survival T/C; experiment: NCI In Vivo Anticancer Drug Screen. Data for tumor model P388 Leukemia (intraperitoneal) in B6D2F1 (BDF1) mice; conditions: endpoint: median survival time; dose: 200.0 mg/kg/injection; schedule: Q04DX003 (ip); vehicle: saline with Tween-80
Inconclusive results and toxic doses are left out. How the source made its calls: active means survival T/C of 150% or more; inactive means T/C below 125% in these data.
Outcomes: Y (active), N (inactive)

- COc1ccc(C2C=CC(c3ccccc3)C(c3ccccc3)C2[N+](=O)[O-])cc1OC (configuration not stated): N
- C(=NCCN=Cc1c[nH]c2ccccc12)c1c[nH]c2ccccc12: N
- O=C(O)CCSc1ncnc2nc[nH]c12: N
- CC(=O)N1C(=O)N(Cl)C(=O)C1(c1ccc(Cl)cc1)c1ccc(Cl)cc1: N
- CCCCCCCCSP(=S)(N1CC1)N1CC1: N
- CCOC(=O)C(C)(C(=O)OCC)c1ccccc1: N
- C[C@]12C=CC(=O)C=C1CC[C@@H]1[C@@H]2CC[C@]2(C)OC(=O)CC[C@@H]12: N
- O=NN(CCBr)C(=O)NC1CCCCC1: N
- O=[N+]([O-])c1ccc(OCCNS(=O)(=O)c2cccc(S(=O)(=O)F)c2)c(Cl)c1: N
- CCCCCCCCCCCCCCCC(=O)N(c1ccc(N)cc1)C(C)CCCN(CC)CC (configuration not stated): N
- COc1ccc(OC)c(Br)c1: N
- CCCCN(C(=O)C(F)(F)F)C(C)(C)C(SSSC(c1ccc(Cl)cc1)C(C)(C)N(CCCC)C(=O)C(F)(F)F)c1ccc(Cl)cc1 (configuration not stated): N
- CS(=O)(=O)OCCN(Cc1ccc(OS(C)(=O)=O)cc1)S(C)(=O)=O: N
- COc1cc(/C=N/NC(N)=S)cc(OC)c1OC: N
- C=CCN(CC=C)/N=N/c1nc[nH]c1C(N)=O: N
- CCC(CC)C(O)C(C)C(C)O (configuration not stated): N
- CCC(=O)O[C@H]1CC[C@H]2[C@@H]3CCC4=CC(=O)C[C@]4(C)[C@H]3CC[C@]12C: N
- COc1cc([C@@H]2c3cc4c(cc3[C@H](OC(C)=O)[C@H]3COC(=O)[C@@H]23)OCO4)cc(OC)c1OC: Y
- CC(NC(=O)C(N)CSC(c1ccccc1)(c1ccccc1)c1ccccc1)C(=O)O (configuration not stated): Y
- Cc1ccc(C2(C#N)CCCCC2)cc1: N
- CCOC(=O)C(=CN(C(C)C)C(C)C)C(=O)OCC: N
- CCOc1ccc(N2C(=O)CSC2=S)cc1: N
